The molecules listed here are annotated with their Ki.
target: Sigma non-opioid intracellular receptor 1 (Cavia porcellus); assay: Displacement of [3H]-(+)-pentazocine from Sigma1 receptor in guinea pig cortex membranes incubated for 120 mins by microbeta scintillation counting method
Sequence (Q60492 whole entry): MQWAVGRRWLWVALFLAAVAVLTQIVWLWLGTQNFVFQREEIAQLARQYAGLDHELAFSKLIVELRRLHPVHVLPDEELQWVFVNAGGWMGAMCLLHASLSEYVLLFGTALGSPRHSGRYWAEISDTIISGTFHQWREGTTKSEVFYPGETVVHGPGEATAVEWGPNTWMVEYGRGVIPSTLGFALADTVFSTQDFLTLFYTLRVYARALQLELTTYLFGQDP
Write the answer as a number in nM, unit excluded.

[
  {
    "MOLECULE": "C[C@@H]1CN(CC[S+]([O-])C(c2ccc(F)cc2)c2ccc(F)cc2)C[C@H](C)N1CC(O)Cc1ccccc1 (stereo partly drawn)",
    "TESTED_TARGET": "Sigma non-opioid intracellular receptor 1 (Cavia porcellus)",
    "SCALE_UNIT": "nM",
    "NUMERIC_VALUE": 75.4
  },
  {
    "MOLECULE": "[O-][S+](CCN1CCN(CC(O)Cc2ccc(C(F)(F)F)cc2)CC1)C(c1ccc(F)cc1)c1ccc(F)cc1 (stereo not drawn)",
    "TESTED_TARGET": "Sigma non-opioid intracellular receptor 1 (Cavia porcellus)",
    "SCALE_UNIT": "nM",
    "NUMERIC_VALUE": 147
  }
]

Exercise: For the molecule shown here, CC(O)CN1CCC2(CCN(CC[S+]([O-])C(c3ccc(F)cc3)c3ccc(F)cc3)CC2)C1 (stereo not drawn) , give the reported Ki.
Key: 65.1

meta.source: ChEMBL document CHEMBL4613215
